# test.protocol: Compound cytotoxicity, XTT-based colorimetric assay
# Type: cell-based
# run.parameters: human, uninfected MT2 cells, day 4, XTT
parameter: CC50 at 4 day

1) Cn1nc(NS(C)(=O)=O)c2c(Cl)ccc(-n3c([C@H](Cc4cc(F)cc(F)c4)NC(=O)Cn4nc(C(F)F)c5c4C(F)(F)[C@@H]4C[C@H]54)nc4cc(-c5ccccc5Oc5ccccc5)ccc4c3=O)c21 (atropisomer, axis not shown; (aR)) ... > 1 µM
2) Cn1nc(NS(C)(=O)=O)c2c(Cl)ccc(-n3c([C@H](Cc4cc(F)cc(F)c4)NC(=O)Cn4nc(C(F)F)c5c4C(F)(F)[C@@H]4C[C@H]54)nc4cc(-c5ccc(F)cc5CO)ccc4c3=O)c21 (atropisomer, axis not shown; (aR)) ... > 1 µM
3) CC(C)S(=O)(=O)c1ccccc1-c1ccc2c(=O)n(-c3ccc(Cl)c4c(NS(C)(=O)=O)nn(CC(F)F)c34)c([C@H](Cc3cc(F)cc(F)c3)NC(=O)Cn3nc(C(F)F)c4c3C(F)(F)[C@@H]3C[C@H]43)nc2c1 ... > 0.5 µM
4) Cn1nc(NS(C)(=O)=O)c2c(Cl)ccc(-n3c([C@H](Cc4cc(F)cc(F)c4)NC(=O)Cn4nc(C(F)F)c5c4C(F)(F)[C@@H]4C[C@H]54)nc4cc(-c5ccc(F)c(F)c5)ccc4c3=O)c21 ... > 0.5 µM
5) O=C(Cn1nc(C(F)F)c2c1C(F)(F)[C@H]1C[C@@H]21)N[C@@H](Cc1cc(F)cc(F)c1)c1nc2cc(-c3ncccn3)ccc2c(=O)n1-c1ccc(S(=O)(=O)N2CCOCC2)cc1 ... > 1 µM
6) Cn1nc(NS(C)(=O)=O)c2c(Cl)ccc(-n3c([C@H](Cc4cc(F)cc(F)c4)NC(=O)Cn4nc(C(F)F)c5c4C(F)(F)[C@@H]4C[C@H]54)nc4cc(-c5c(F)cccc5F)ccc4c3=O)c21 ... > 1 µM

Data request: // query CC50 at 4 day value for entry Cn1nc(NS(C)(=O)=O)c2c(Cl)ccc(-n3c([C@H](Cc4cc(F)cc(F)c4)NC(=O)Cn4nc(C(F)F)c5c4C(F)(F)[C@@H]4C[C@H]54)nc4cc(-c5ccc(F)c(C(=O)O)c5)ccc4c3=O)c21 (atropisomer, axis not shown; (aR))
Data returned: > 1 µM
